Origin of the recorded values: patent US9334271B2

- Target or test system: recombinant human mTOR (Homo sapiens (Human))
- Sequence (P42345 1360-2549): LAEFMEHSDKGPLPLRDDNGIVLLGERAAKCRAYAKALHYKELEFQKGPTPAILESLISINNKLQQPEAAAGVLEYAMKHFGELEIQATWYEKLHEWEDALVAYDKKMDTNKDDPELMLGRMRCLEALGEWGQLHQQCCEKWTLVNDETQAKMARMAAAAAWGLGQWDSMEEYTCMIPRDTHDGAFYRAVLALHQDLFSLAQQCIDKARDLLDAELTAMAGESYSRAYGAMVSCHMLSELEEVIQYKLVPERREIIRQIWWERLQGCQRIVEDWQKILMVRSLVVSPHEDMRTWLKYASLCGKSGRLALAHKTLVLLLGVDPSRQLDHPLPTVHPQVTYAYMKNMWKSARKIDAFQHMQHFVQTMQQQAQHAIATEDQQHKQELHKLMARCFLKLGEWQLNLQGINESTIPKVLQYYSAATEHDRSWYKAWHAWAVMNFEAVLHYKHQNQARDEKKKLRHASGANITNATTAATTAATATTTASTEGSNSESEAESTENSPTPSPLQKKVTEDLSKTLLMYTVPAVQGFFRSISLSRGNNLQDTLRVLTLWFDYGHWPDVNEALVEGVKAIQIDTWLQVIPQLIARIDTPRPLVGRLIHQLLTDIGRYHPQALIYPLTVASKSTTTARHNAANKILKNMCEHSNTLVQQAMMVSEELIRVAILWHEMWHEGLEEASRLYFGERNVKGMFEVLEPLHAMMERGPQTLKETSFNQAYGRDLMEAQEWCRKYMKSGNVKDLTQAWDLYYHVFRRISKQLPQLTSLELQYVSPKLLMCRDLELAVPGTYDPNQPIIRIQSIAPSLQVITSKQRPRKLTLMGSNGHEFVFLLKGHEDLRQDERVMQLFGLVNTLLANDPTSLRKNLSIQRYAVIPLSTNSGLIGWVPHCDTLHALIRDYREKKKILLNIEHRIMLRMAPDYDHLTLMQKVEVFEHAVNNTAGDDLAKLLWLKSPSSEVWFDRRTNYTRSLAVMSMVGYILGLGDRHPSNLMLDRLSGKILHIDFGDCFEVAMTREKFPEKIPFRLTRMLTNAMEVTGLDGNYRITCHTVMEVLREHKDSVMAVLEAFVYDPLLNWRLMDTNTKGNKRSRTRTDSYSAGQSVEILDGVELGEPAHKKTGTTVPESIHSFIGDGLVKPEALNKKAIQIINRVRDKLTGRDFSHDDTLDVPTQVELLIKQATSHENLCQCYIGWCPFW
- Experimental details: Test 1: mTOR ATP-binding assay based on TR-FRET
- Assay context: GST-tagged truncated human mTOR, tracer-314, TR-FRET
pIC50: −log10 of the molar value.
Each entry falls into one class according to its pIC50; the ranges are bottom bin = under 6, middle bin = from 6 up to 7, top bin = 7 and over

Past entries and their recorded results:
[[record]]
chemical_smiles = "CC[C@@H]1COCCN1c1nc(N2CCOC[C@H]2C)c2nc(-c3cccc4[nH]ccc34)[nH]c2n1"
qualitative_label = "top bin"

[[record]]
chemical_smiles = "C[C@@H]1COCCN1c1nc(N2CCOC[C@H]2C)c2nc(-c3ccc(-c4ncc[nH]4)cc3)[nH]c2n1"
qualitative_label = "bottom bin"

[[record]]
chemical_smiles = "C[C@@H]1COCCN1c1nc(N2CCN(C)CC2)nc2[nH]c(-c3cccc4[nH]ccc34)nc12"
qualitative_label = "middle bin"

[[record]]
chemical_smiles = "C[C@H]1COCCN1c1nc(N2CCOC[C@@H]2C)c2nc(-c3ccc(N)nc3)[nH]c2n1"
qualitative_label = "bottom bin"

[[record]]
chemical_smiles = "C[C@@H]1COCCN1c1nc(N2CCOC[C@H]2C)c2nc(-c3cc[nH]n3)[nH]c2n1"
qualitative_label = "middle bin"

[[record]]
chemical_smiles = "C[C@@H]1COCCN1c1nc(N2CCOC[C@@H]2C)nc2[nH]c(-c3cc(F)cc4[nH]ccc34)nc12"
qualitative_label = "top bin"

[[record]]
chemical_smiles = "COc1cc(-c2nc3c(N4CCOC[C@H]4C)nc(N4CCOC[C@@H]4C)nc3[nH]2)c2cc[nH]c2c1"
qualitative_label = "top bin"

[[record]]
chemical_smiles = "C[C@@H]1COCCN1c1nc(N2CCOC[C@@H]2C)nc2[nH]c(-c3ccccn3)nc12"
qualitative_label = "middle bin"

[[record]]
chemical_smiles = "C[C@H]1COCCN1c1nc(N2CCOC[C@@H]2C)c2nc(-c3ccc(-c4ncc[nH]4)cc3)[nH]c2n1"
qualitative_label = "middle bin"

[[record]]
chemical_smiles = "CCC[C@@H]1COCCN1c1nc(N2CCOC[C@H]2C)c2nc(-c3cccc4[nH]ccc34)[nH]c2n1"
qualitative_label = "middle bin"


Now turn to the next compound.
Prompt: Hey, which category is C[C@H]1COCCN1c1nc(N2CCOC[C@@H]2C)c2nc(-c3cc[nH]n3)[nH]c2n1 in, do you know?
Response: middle bin
